So I've got a bunch of molecules here, and I need their EC50 values.
test system: MV-4-11 cells; experiment: MV-4-11 proliferation EC50 assay (CellTiter-Glo); assay type: cell-based; conditions: Homo sapiens, MV4-11, 48 h, read-out: MV-4-11 proliferation EC50, ave. ± S.D.
Enter your answer as a number in nM; do not include the unit.

Enter EC50 (test system MV-4-11 cells) for CCOc1cc(C(=O)N2CCC(N3CCN(C)CC3)CC2)ccc1Nc1cc2c(cn1)N(C)C(=O)c1ccccc1N2C 700

Enter EC50 (test system MV-4-11 cells) for CN1C(=O)c2ccccc2N(C)c2cc(Nc3ccc(N4CCC(O)CC4)cn3)ncc21 60

Enter EC50 (test system MV-4-11 cells) for CN1C(=O)c2ccccc2N(C)c2nc(Nc3ccc(N4CCC(O)CC4)cn3)ncc21 1120

This collection of values is drawn from patent US20170008888A1.
